Species on record: Rattus norvegicus
measurement.protocol: Open TG-GATES - Regimen: Single
Type: toxicity, organism-based, Sprague-Dawley
Set-up: regimen Single, gender Male, age 6 weeks
condition.parameters: in vivo, po, 0 mg/kg, 6 h, tissue Blood, route gavage, dose level Control
What MCH was measured for each of the following?
Record the value in pg, omitting the unit from your answer.

Exam item: Quote MCH reported for Cc1cccc(C)c1OCC(C)N (centres undefined) please.
Marked response: 20.6

Exam item: Quote MCH reported for `O=[N+]([O-])c1ccc(O)c([N+](=O)[O-])c1` please.
Marked response: 21.5

Exam item: Quote MCH reported for C[C@H]1O[C@H](O[C@H]2[C@H](O)[C@@H](O)[C@@H](O[C@H]3[C@H](O)[C@@H](O)C(O)O[C@@H]3CO)O[C@@H]2CO)[C@H](O)[C@@H](O)[C@@H]1N[C@H]1C=C(CO)[C@@H](O)[C@H](O)[C@H]1O (some centres undefined) please.
Marked response: 21

Exam item: Quote MCH reported for `C=C(C)[C@H]1Cc2c(ccc3c2O[C@@H]2COc4cc(OC)c(OC)cc4[C@@H]2C3=O)O1` please.
Marked response: 21.2

Exam item: Quote MCH reported for `Cc1ccc2cc3c(ccc4ccccc43)c3c2c1CC3` please.
Marked response: 20.7

Exam item: Quote MCH reported for `C[C@H]1C(=O)O[C@@H]2CCN3CC=C(COC(=O)[C@](C)(O)[C@]1(C)O)[C@H]23` please.
Marked response: 21.5

Exam item: Quote MCH reported for `OCCN1CCN(CCCN2c3ccccc3Sc3ccc(C(F)(F)F)cc32)CC1` please.
Marked response: 21.6

Exam item: Quote MCH reported for `Cn1cc[nH]c1=S` please.
Marked response: 22.3

Exam item: Quote MCH reported for CCOC(=O)C(C)(C)Oc1ccc(Cl)cc1 [CLOFIBRATE] please.
Marked response: 20.9

* * *

Organism: Rattus norvegicus
measurement.protocol: Open TG-GATES - Regimen: Single
Assay type: toxicity, organism-based, Sprague-Dawley
Parameters: regimen Single, gender Male, age 6 weeks
condition.parameters: in vivo, po, 0 mg/kg, 24 h, tissue Plasma, route gavage, dose level Control
experimental.readout: K (meq/L)
Record the value in meq/L, omitting the unit from your answer.

Exam item: Quote K reported for Cn1cc[nH]c1=S [METHIMAZOLE] please.
Marked response: 4.2

Exam item: Quote K reported for C=C(C)[C@H]1Cc2c(ccc3c2O[C@@H]2COc4cc(OC)c(OC)cc4[C@@H]2C3=O)O1 [ROTENONE] please.
Marked response: 4.8

Exam item: Quote K reported for O=[N+]([O-])c1ccc(O)c([N+](=O)[O-])c1 [2,4-DINITROPHENOL] please.
Marked response: 4.6

Exam item: Quote K reported for C[C@H]1O[C@H](O[C@H]2[C@H](O)[C@@H](O)[C@@H](O[C@H]3[C@H](O)[C@@H](O)C(O)O[C@@H]3CO)O[C@@H]2CO)[C@H](O)[C@@H](O)[C@@H]1N[C@H]1C=C(CO)[C@@H](O)[C@H](O)[C@H]1O (some centres undefined) [ACARBOSE] please.
Marked response: 3.9

Exam item: Quote K reported for CCOC(=O)C(C)(C)Oc1ccc(Cl)cc1 [CLOFIBRATE] please.
Marked response: 3.9

Exam item: Quote K reported for Cc1ccc2cc3c(ccc4ccccc43)c3c2c1CC3 [3-METHYLCHOLANTHRENE] please.
Marked response: 4.4

Exam item: Quote K reported for Cc1cccc(C)c1OCC(C)N (centres undefined) [MEXILETINE] please.
Marked response: 4

Exam item: Quote K reported for OCCN1CCN(CCCN2c3ccccc3Sc3ccc(C(F)(F)F)cc32)CC1 [FLUPHENAZINE] please.
Marked response: 4.9

Exam item: Quote K reported for C[C@H]1C(=O)O[C@@H]2CCN3CC=C(COC(=O)[C@](C)(O)[C@]1(C)O)[C@H]23 [MONOCROTALINE] please.
Marked response: 4.2

* * *

What WBC was measured for each of the following?
Organism: Rattus norvegicus
measurement.protocol: Open TG-GATES - Regimen: Daily Repeat
Format: toxicity, organism-based, Sprague-Dawley
Parameters: regimen Daily Repeat, gender Male, age 6 weeks
condition.parameters: in vivo, po, 0 mg/kg, […], tissue Blood, route gavage, dose level Control, time 28 day
State the result as a value with its unit after it.

Exam item: Quote WBC reported for C[C@H]1O[C@H](O[C@H]2[C@H](O)[C@@H](O)[C@@H](O[C@H]3[C@H](O)[C@@H](O)C(O)O[C@@H]3CO)O[C@@H]2CO)[C@H](O)[C@@H](O)[C@@H]1N[C@H]1C=C(CO)[C@@H](O)[C@H](O)[C@H]1O (some centres undefined) [ACARBOSE] please.
Marked response: 93.1 x10_2/uL

Exam item: Quote WBC reported for O=[N+]([O-])c1ccc(O)c([N+](=O)[O-])c1 [2,4-DINITROPHENOL] please.
Marked response: 107.4 x10_2/uL

Exam item: Quote WBC reported for OCCN1CCN(CCCN2c3ccccc3Sc3ccc(C(F)(F)F)cc32)CC1 [FLUPHENAZINE] please.
Marked response: 160.8 x10_2/uL

Exam item: Quote WBC reported for Cn1cc[nH]c1=S [METHIMAZOLE] please.
Marked response: 113.4 x10_2/uL

Exam item: Quote WBC reported for CCOC(=O)C(C)(C)Oc1ccc(Cl)cc1 [CLOFIBRATE] please.
Marked response: 108.2 x10_2/uL

Exam item: Quote WBC reported for C=C(C)[C@H]1Cc2c(ccc3c2O[C@@H]2COc4cc(OC)c(OC)cc4[C@@H]2C3=O)O1 [ROTENONE] please.
Marked response: 107.2 x10_2/uL

Exam item: Quote WBC reported for O=C1CN(/N=C/c2ccc([N+](=O)[O-])o2)C(=O)N1 [NITROFURANTOIN] please.
Marked response: 107.5 x10_2/uL

Exam item: Quote WBC reported for C[C@H]1C(=O)O[C@@H]2CCN3CC=C(COC(=O)[C@](C)(O)[C@]1(C)O)[C@H]23 [MONOCROTALINE] please.
Marked response: 110.5 x10_2/uL

Exam item: Quote WBC reported for Cc1cccc(C)c1OCC(C)N (centres undefined) [MEXILETINE] please.
Marked response: 104.4 x10_2/uL

* * *

Organism: Rattus norvegicus
measurement.protocol: Open TG-GATES - Regimen: Single
Type: toxicity, organism-based, Sprague-Dawley
Set-up: regimen Single, gender Male, age 6 weeks
condition.parameters: in vivo, po, 0 mg/kg, 9 h, tissue Plasma, route gavage, dose level Control
What ALP was measured for each of the following?
Record the value in IU/L, omitting the unit from your answer.

Exam item: Quote ALP reported for `O=[N+]([O-])c1ccc(O)c([N+](=O)[O-])c1` please.
Marked response: 1123.8

Exam item: Quote ALP reported for `Cc1ccc2cc3c(ccc4ccccc43)c3c2c1CC3` please.
Marked response: 1550.4

Exam item: Quote ALP reported for Cc1cccc(C)c1OCC(C)N (centres undefined) please.
Marked response: 1333.8

Exam item: Quote ALP reported for `OCCN1CCN(CCCN2c3ccccc3Sc3ccc(C(F)(F)F)cc32)CC1` please.
Marked response: 831.6

Exam item: Quote ALP reported for CCOC(=O)C(C)(C)Oc1ccc(Cl)cc1 [CLOFIBRATE] please.
Marked response: 1006.6

Exam item: Quote ALP reported for C[C@H]1O[C@H](O[C@H]2[C@H](O)[C@@H](O)[C@@H](O[C@H]3[C@H](O)[C@@H](O)C(O)O[C@@H]3CO)O[C@@H]2CO)[C@H](O)[C@@H](O)[C@@H]1N[C@H]1C=C(CO)[C@@H](O)[C@H](O)[C@H]1O (some centres undefined) please.
Marked response: 1467.6

Exam item: Quote ALP reported for `C=C(C)[C@H]1Cc2c(ccc3c2O[C@@H]2COc4cc(OC)c(OC)cc4[C@@H]2C3=O)O1` please.
Marked response: 1388.2

Exam item: Quote ALP reported for `C[C@H]1C(=O)O[C@@H]2CCN3CC=C(COC(=O)[C@](C)(O)[C@]1(C)O)[C@H]23` please.
Marked response: 1373.4

Exam item: Quote ALP reported for `Cn1cc[nH]c1=S` please.
Marked response: 1453.2

* * *

Species on record: Rattus norvegicus
measurement.protocol: Open TG-GATES - Regimen: Daily Repeat
Format: toxicity, organism-based, Sprague-Dawley
Parameters: regimen Daily Repeat, gender Male, age 6 weeks
condition.parameters: in vivo, po, 0 mg/kg, 72 h, tissue Blood, route gavage, dose level Control, time 3 day
What Eos was measured for each of the following?
Record the value in %, omitting the unit from your answer.

Exam item: Quote Eos reported for OCCN1CCN(CCCN2c3ccccc3Sc3ccc(C(F)(F)F)cc32)CC1 [FLUPHENAZINE] please.
Marked response: 1

Exam item: Quote Eos reported for C=C(C)[C@H]1Cc2c(ccc3c2O[C@@H]2COc4cc(OC)c(OC)cc4[C@@H]2C3=O)O1 [ROTENONE] please.
Marked response: 1

Exam item: Quote Eos reported for C[C@H]1C(=O)O[C@@H]2CCN3CC=C(COC(=O)[C@](C)(O)[C@]1(C)O)[C@H]23 [MONOCROTALINE] please.
Marked response: 0.6

Exam item: Quote Eos reported for Cc1cccc(C)c1OCC(C)N (centres undefined) [MEXILETINE] please.
Marked response: 0.8

Exam item: Quote Eos reported for C[C@H]1O[C@H](O[C@H]2[C@H](O)[C@@H](O)[C@@H](O[C@H]3[C@H](O)[C@@H](O)C(O)O[C@@H]3CO)O[C@@H]2CO)[C@H](O)[C@@H](O)[C@@H]1N[C@H]1C=C(CO)[C@@H](O)[C@H](O)[C@H]1O (some centres undefined) [ACARBOSE] please.
Marked response: 1.2

Exam item: Quote Eos reported for Cn1cc[nH]c1=S [METHIMAZOLE] please.
Marked response: 1

Exam item: Quote Eos reported for O=C1CN(/N=C/c2ccc([N+](=O)[O-])o2)C(=O)N1 [NITROFURANTOIN] please.
Marked response: 1

Exam item: Quote Eos reported for O=[N+]([O-])c1ccc(O)c([N+](=O)[O-])c1 [2,4-DINITROPHENOL] please.
Marked response: 1.2

Exam item: Quote Eos reported for CCOC(=O)C(C)(C)Oc1ccc(Cl)cc1 [CLOFIBRATE] please.
Marked response: 1
